The measurements presented in this section are drawn from patent US20210196796A1.

For each record, write down the corresponding 3F8 Ortho Proliferation Signal 1:10.
Target: T1, orthogonal hCD122 receptor (hoRb), hCD122 with H133D and Y134F (human, UniProt P14784 27-550)
T1 sequence: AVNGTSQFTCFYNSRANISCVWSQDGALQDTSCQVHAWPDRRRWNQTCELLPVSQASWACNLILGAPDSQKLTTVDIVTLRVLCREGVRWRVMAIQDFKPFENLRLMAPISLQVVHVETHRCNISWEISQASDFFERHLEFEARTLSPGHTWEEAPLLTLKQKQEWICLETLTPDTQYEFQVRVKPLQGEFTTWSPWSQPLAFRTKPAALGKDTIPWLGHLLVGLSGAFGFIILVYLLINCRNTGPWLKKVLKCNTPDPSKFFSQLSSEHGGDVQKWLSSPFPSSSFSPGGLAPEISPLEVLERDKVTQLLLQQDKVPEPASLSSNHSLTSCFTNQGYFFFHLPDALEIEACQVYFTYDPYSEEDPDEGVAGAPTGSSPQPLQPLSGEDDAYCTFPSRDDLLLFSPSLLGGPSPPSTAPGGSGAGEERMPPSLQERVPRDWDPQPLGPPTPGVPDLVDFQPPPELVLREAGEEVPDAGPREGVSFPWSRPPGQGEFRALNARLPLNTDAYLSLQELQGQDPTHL
Assay: cell-based or functional assay
Answers are plain numbers, in cts/min.

{"BINDER": "SQVLTA (ligand) APTSSSTKKTQLQLSQLLVLLTAILNGINNYKNPKLTRMLTFKFYMPKKATELKHLQCLEEELKPLEEVLNLAQSKNFHLRPRDLISNINVIVLELKGSETTFMCEYADETATIVEFLNRWITFCQSIISTLT", "MEASURED": 15100}

Ask | 3F8 Ortho Proliferation Signal 1:10 lookup needed for SQVLKS (ligand) APTSSSTKKTQLQLSQLLVLLKSILNGINNYKNPKLTRMLTFKFYMPKKATELKHLQCLEEELKPLEEVLNLAQSKNFHLRPRDLISNINVIVLELKGSETTFMCEYADETATIVEFLNRWITFCQSIISTLT , thanks.
Reply | 55500
